# target desc: Norepinephrine transporter (Rattus norvegicus)
# Sequence (Q9WTR4 whole entry): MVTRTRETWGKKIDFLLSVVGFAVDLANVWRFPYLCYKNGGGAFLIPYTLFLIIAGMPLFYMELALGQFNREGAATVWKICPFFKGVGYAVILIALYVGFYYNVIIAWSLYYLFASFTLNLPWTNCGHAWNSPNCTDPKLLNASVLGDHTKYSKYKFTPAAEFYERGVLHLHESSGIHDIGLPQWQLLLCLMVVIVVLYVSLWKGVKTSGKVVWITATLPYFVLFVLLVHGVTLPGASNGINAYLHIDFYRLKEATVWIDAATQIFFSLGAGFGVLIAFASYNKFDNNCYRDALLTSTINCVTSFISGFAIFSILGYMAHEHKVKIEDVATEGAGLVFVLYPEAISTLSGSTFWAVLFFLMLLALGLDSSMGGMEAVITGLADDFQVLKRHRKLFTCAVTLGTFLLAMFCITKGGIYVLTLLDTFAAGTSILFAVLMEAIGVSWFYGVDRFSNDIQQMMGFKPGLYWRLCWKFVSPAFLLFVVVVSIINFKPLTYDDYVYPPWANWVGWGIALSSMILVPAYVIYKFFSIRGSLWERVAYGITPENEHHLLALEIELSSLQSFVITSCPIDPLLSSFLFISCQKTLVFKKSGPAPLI
# experimental details: Displacement of from norepinephrine transporter of frozen rat caudate membranes
# Assay type: cell membranes, Membrane
I'd be grateful if you could share measured log10 of Ki for these entries.
Plainly stated, the numbers are log10 of Ki given in µM.

A selection of reference data follows.
CCN(CC)C1CC(c2ccc(Cl)c(Cl)c2)c2ccc(OC)cc21 (trans isomer) : 0.00
CNC1CC(c2ccc(Cl)c(Cl)c2)c2ccc(O)cc21 (trans isomer) : -1.62

Dear reader, for each entry below, please note its log10 of Ki.
1. CN[C@@H]1C[C@@H](c2ccc(Cl)c(Cl)c2)c2ccc(OC)cc21
2. CN[C@H]1C[C@H](c2ccc(Cl)c(Cl)c2)c2ccc(OC)cc21
3. CNC1CC(c2ccc(Cl)c(Cl)c2)c2ccc(OC)cc21 (cis isomer)
4. CCN(CC)C1CC(c2ccc(Cl)c(Cl)c2)c2ccc(O)cc21 (trans isomer)
5. CNC1CC(c2ccc(Cl)c(Cl)c2)c2ccc(OC)cc21 (trans isomer)

A)
1: -2.15; 2: -0.09; 3: -0.77; 4: 0.12; 5: -1.82
